Data provenance is ChEMBL document CHEMBL3351382.

# System: Staphylococcus aureus
# method_description: Antimicrobial activity against Staphylococcus aureus ATCC 25923 after 24 hrs by agar dilution method
# Format: functional
# condition_parameters: ATCC 25923, 24 h
property: MIC
Answer as a quantity: numeral, then unit.

Recorded result, "Nn1c(Cc2cccs2)nn(CC(=O)NNC(=S)Nc2ccc(F)cc2)c1=O" , MIC: 2410 µg/mL

Value of MIC reported for the molecule "Nn1c(Cc2cccs2)nn(Cc2nnc(S)n2-c2ccc(Br)cc2)c1=O" is 1750 µg/mL

Entry under test: "Cc1ccc(NC(=S)NNC(=O)Cn2nc(Cc3cccs3)n(N)c2=O)cc1" . Its MIC was 3220 µg/mL

====

# method_description: Antioxidant activity assessed as trolox equivalent of ferric ion reducing activity using fe3+-TPTZ at 200 ug/ml by FRAP assay
# Type: physicochemical
property: Activity
Just so you know, I need the unit written after the number.

For "COc1ccc(/C=N/NC(=O)Cn2nc(Cc3cccs3)n(N)c2=O)cc1" the molecule record lists Activity as 87 µM

Notebook: "Nn1c(Cc2cccs2)nn(CC(=O)N/N=C/c2cccs2)c1=O" , Activity read as 36 µM

# molecule "Nn1c(Cc2cccs2)nn(Cc2nnc(S)n2-c2ccc(Br)cc2)c1=O" ; its Activity = 70 µM

Note to self: Activity recorded for "Nn1c(Cc2cccs2)nn(CC(=O)NNC(=S)Nc2ccccc2)c1=O" was 584 µM
